- measurement-conditions: octanol/water
- Description: Partition coefficient (logD) (chloroform/buffer)
outcome-measure: logD
Keep it simple and answer with nothing but the number.

Known logD results, listed for orientation:
NCC(=O)Nc1ccc(S(=O)(=O)Nc2nnc(S(N)(=O)=O)s2)cc1    0.043
CN(CC(=O)NCCC(=O)Nc1nnc(S(N)(=O)=O)s1)C(=N)N    1.944
NCC(=O)NCC(=O)Nc1c(S(N)(=O)=O)cc(S(N)(=O)=O)c(Cl)c1Cl    2.133
CC(=O)/N=c1/sc(S(N)(=O)=O)nn1C [METHAZOLAMIDE]    0.06

// sample `NCC(=O)NCC(=O)Nc1ccc(S(=O)(=O)Nc2nnc(S(N)(=O)=O)s2)cc1` , its logD was 0.754

// sample `CNCC(=O)Nc1cc(Cl)c(S(N)(=O)=O)cc1S(N)(=O)=O` , its logD was 1.569

// sample CCNC1CC(C)S(=O)(=O)c2sc(S(=O)(=O)NC(=O)CNC)cc21 (stereo not drawn) , its logD was 1.785

// sample `NCC(=O)NCC(=O)NS(=O)(=O)c1nc2ccc(OCCO)cc2s1` , its logD was 1.85

---

Entries and their log10 of Ki values follow.
- target-of-assay: UniProt:Q95323
- Sequence (Q95323 whole entry): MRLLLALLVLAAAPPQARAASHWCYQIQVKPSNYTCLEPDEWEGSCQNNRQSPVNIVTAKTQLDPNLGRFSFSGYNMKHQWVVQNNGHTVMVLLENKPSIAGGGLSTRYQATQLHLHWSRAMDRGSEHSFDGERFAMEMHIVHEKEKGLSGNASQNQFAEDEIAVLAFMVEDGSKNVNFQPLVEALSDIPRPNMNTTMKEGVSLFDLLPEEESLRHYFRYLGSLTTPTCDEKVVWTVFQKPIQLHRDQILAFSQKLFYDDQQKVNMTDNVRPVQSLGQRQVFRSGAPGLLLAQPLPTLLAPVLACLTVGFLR
Kindly note that the scale is log10 and the underlying Ki is in nM.

CNCC(=O)Nc1cccc(S(N)(=O)=O)c1    2.29
CNCC(=O)Nc1ccc(S(N)(=O)=O)cc1Br    1.81
CNCC(=O)NS(=O)(=O)c1nc2ccc(OCCO)cc2s1    1.18
CNCC(=O)NS(=O)(=O)c1ccc(CO)cc1    2.09
Cn1nc(S(N)(=O)=O)s/c1=N/C(=O)CNC(=O)CN    1.64

# `Nc1ccc(S(=O)(=O)Nc2ccc(S(N)(=O)=O)cc2)cc1` with UniProt:Q95323: log10 of Ki is 1.70

# CCN(C(=O)CN)C1CC(C)S(=O)(=O)c2sc(S(N)(=O)=O)cc21 (stereo unspecified) with UniProt:Q95323: log10 of Ki is 1.54

# `CN(CC(=O)Nc1nnc(S(N)(=O)=O)s1)C(=N)N` with UniProt:Q95323: log10 of Ki is 1.54

# `CN(CC(=O)NS(=O)(=O)c1nc2ccc(OCCO)cc2s1)C(=N)N` with UniProt:Q95323: log10 of Ki is 1.04

# `NCC(=O)NCC(=O)Nc1ccc(S(N)(=O)=O)cc1Cl` with UniProt:Q95323: log10 of Ki is 1.81

# CCN(C(=O)CN(C)C(=N)N)C1CC(C)S(=O)(=O)c2sc(S(N)(=O)=O)cc21 (stereo unspecified) with UniProt:Q95323: log10 of Ki is 1.43

---

Entries and their Change in IOP values follow.
- Species on record: Oryctolagus cuniculus
- protocol-details: The compound was evaluated for fall in intraocular pressure (IOP) of Normotensive rabbits after treatment with one drop (50 microL) of a 2% solution at 90 min (pH 5.5)
- Type: functional, Eye
Please reply with the bare figure in mmHg and do not write the unit itself.

NCC(=O)Nc1nnc(S(N)(=O)=O)s1    4.6
NCC(=O)NCCC(=O)Nc1nnc(S(N)(=O)=O)s1    8.4
CNCC(=O)Nc1cc(Cl)c(S(N)(=O)=O)cc1S(N)(=O)=O    4.5

Consider the record given below.
// sample `NCC(=O)Nc1ccc(S(=O)(=O)Nc2nnc(S(N)(=O)=O)s2)cc1` , its Change in IOP was 9
